Reference for the values: patent US20120190669A1

Molecular target: recombinant PIM-1 (Homo sapiens, UniProt P11309)
Sequence (P11309 whole entry): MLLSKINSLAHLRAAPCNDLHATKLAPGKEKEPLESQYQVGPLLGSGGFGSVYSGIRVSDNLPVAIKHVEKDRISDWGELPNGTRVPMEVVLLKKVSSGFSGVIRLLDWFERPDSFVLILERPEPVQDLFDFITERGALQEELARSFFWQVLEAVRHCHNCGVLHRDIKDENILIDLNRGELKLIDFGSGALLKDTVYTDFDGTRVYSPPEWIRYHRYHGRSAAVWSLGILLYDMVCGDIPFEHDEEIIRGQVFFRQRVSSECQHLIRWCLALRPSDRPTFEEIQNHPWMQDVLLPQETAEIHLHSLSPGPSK
Test: PIM-1 kinase assay (radiometric, 15 uM ATP, DMSO 4%)
Assay type: biochemical
Details: Table 2; read-out: PIM1: IC50
pIC50: −log10 of the molar value.
Property Label: pIC50

Q: Fill in the blank: the reported pIC50 of CN1CCCN(C(=O)c2cccc(-c3ccc(CC4C(=O)Nc5ccc(Cl)cc54)o3)c2)CC1 (stereo not shown) [drawing 213] is ____.
Ans: > 7.00

====

Tested on: BxPC3
Assay: Alamar Blue cell proliferation assay, BxPC3
Format: cell-based
Conditions: Homo sapiens, BXPC-3, Table 4, read-out: AB: BxPC3
Property Label: IC50
Answer by giving the amount and then stating its unit.

Q: API: value(readout= IC50, system= BxPC3, query= C/C(=C1\C(=O)Nc2ccc(Cl)cc21)c1ccc(-c2cccc(C(=O)N3CCCN(C)CC3)c2)o1 )
Ans: 785 nM
